Entries and their growth values follow.
System: OVCAR-5 ovarian
Assay Text: NCI-60 one-dose screen, 48 h (100 = growth as untreated, 0 = no growth, -100 = all killed)
Experimental Conditions: 10 µM unless noted
The panel holds about 83,000 compounds, 20% with a hit somewhere; the sample as a whole holds those more often.
Dear colleague, please return just the value in %, with no unit written.

Ask: Consider the compound CC(=O)OCC1OC(n2cnc3c(=S)nc(N)[nH]c32)C(OC(C)=O)C1OC(C)=O (centres undefined) and give its measured growth.
Reply: 70

Ask: Reported growth, compound O=C1CSc2ccccc2N1 : ____
Reply: 116

Ask: Find the recorded growth belonging to CCCCCCCCCCCCCCCCOc1ccccc1NC(=O)CC(C)=O and report it.
Reply: 102

Ask: // query growth value for entry O=[N+]([O-])c1c(Cl)ncnc1Cl
Reply: 85.7

Ask: Could you share which growth value was measured for Cc1ccc(S(N)(=O)=O)cc1Cl ?
Reply: 103

Ask: Which growth value is on record for CN(C)c1ccc(/C=C/C(=O)c2ccc(NC(N)=O)cc2)cc1 ?
Reply: 99.8

Ask: Request the reported growth associated with O=C(O)c1cc(I)ccc1O
Reply: 97.5

----------
System: MCF7 breast
Assay Text: NCI-60 one-dose screen, 48 h (100 = growth as untreated, 0 = no growth, -100 = all killed)
Experimental Conditions: 10 µM unless noted
This is part of a sample that, as a whole, favours compounds with a hit. Of some 83,000 tested, about 20% had one in any assay. Activity calls are given as the source filed them. How the source made its calls: active means growth percent below 10; inactive means the rest.
Reported Property: growth

Below: 3 compounds and their reported growth.
| Compound | Experimental Value |
| --- | --- |
| O=C(c1ccccc1)c1ccc(-c2ccc(O)cc2)cc1 | 23.3% (inactive) |
| CCOC(OCC)C(=O)c1ccccc1 | 94.4% (inactive) |
| O=C1C=Cc2ccccc2/C1=C/c1[nH]c(=O)[nH]c1O | 12.9% (inactive) |

Ask: Quick check: growth on MCF7 breast, item CCOP(=O)(OCC)/C(=C\N1C(=O)CC(=O)NC1=S)C(=O)OC ?
Reply: 94.7% (inactive)

----------
Test system: SK-OV-3 ovarian
Assay Text: NCI-60 one-dose screen, 48 h (100 = growth as untreated, 0 = no growth, -100 = all killed)
Experimental Conditions: 10 µM unless noted
The panel holds about 83,000 compounds, 20% with a hit somewhere; the sample as a whole holds those more often.
Reported Property: growth (%)
Express the result in % but write the number alone.

Some compounds with known growth results, for comparison:
| Compound | growth (%) |
| --- | --- |
| COc1nc2ccccc2s1 | 89.5 |
| CC1CCC(C(C)(C)[N+](C)(C)C)CC1 (centres undefined) | 102 |
| CC(=O)N(C(C)=O)c1ccc(C)cc1 | 109 |

Next, consider the following compound.
Ask: What measured growth goes with COc1cc(C(=O)O)c(O)c(C(C)(C)C)c1 ?
Reply: 103

----------
Test system: CAKI-1 renal
Assay Text: NCI-60 one-dose screen, 48 h (100 = growth as untreated, 0 = no growth, -100 = all killed)
Experimental Conditions: 10 µM unless noted
Compounds without any hit were thinned out: in the full panel of roughly 83,000, 20% have a hit. Activity calls are given as the source filed them. Rule for the calls: active = growth percent below 10; inactive = the rest.
We begin with a simple list: items and their reported growth.

In the examples that follow, each entry is paired with its recorded growth.
| Molecule | Reported Property | Experimental Value |
| --- | --- | --- |
| O=CNCCc1ccccc1 | growth | 93.8% (inactive) |
| COc1ccc(C)cc1NC(=O)SC(C)C | growth | 95.5% [100 µM] (inactive) |
| O=C1NC(=O)/C(=C\c2ccncc2)N1 | growth | 100% (inactive) |
| COc1cc(N)c2ncccc2c1Cl | growth | 95.8% (inactive) |
| COc1cc2c(c(OC)c1OC)-c1ccc(SC)c(=O)cc1[C@@H](NC1OC(CO)C(O)C(O)C1O)CC2 (stereo partly specified) | growth | 18.7% (inactive) |

Ask: Requested read-out: growth. Entry: S=c1nc(-c2ccccn2)c(-c2ccccn2)n[nH]1
Reply: 110% (inactive)

----------
Items are presented alongside their recorded growth.
Tested on: SF-539 CNS
Assay Text: NCI-60 one-dose screen, 48 h (100 = growth as untreated, 0 = no growth, -100 = all killed)
Experimental Conditions: 10 µM unless noted
About 83,000 compounds went through this panel and 20% of them were active in at least one assay; those are over-represented in the sample as a whole. Calls of active or inactive are those of the source. Rule for the calls: active = growth percent below 10; inactive = the rest.

// known answers, use as guide
| Structure As Smiles | growth |
| --- | --- |
| C=C1C(=O)C2CCN1CC2 | 102% (inactive) |
| NC(=O)NCCO | 103% (inactive) |
| CC(=O)[C@@]1(O)CC[C@H]2[C@@H]3CC[C@@H]4CC(=O)CC[C@]4(C)[C@H]3[C@@H](O)C[C@@]21C | 96.8% (inactive) |
| Nc1nc(N)nc(N2CCCCC2)n1 | 97.6% (inactive) |
| CC(=O)Nc1ncc(S(=O)(=O)c2ccc([N+](=O)[O-])cc2)s1 | 113% (inactive) |

Ask: Which growth value is on record for CCCCOC(=O)c1ccccc1O ?
Reply: 106% (inactive)

Ask: # get_value(readout='growth', item= C=C(OC(C)=O)c1ccccc1 )
Reply: 108% (inactive)

Ask: Any idea what its growth is? The molecule is O=C(NCc1ccco1)Nc1cccc2c(NC(=O)NCc3ccco3)cccc12
Reply: 30.2% [100 µM] (inactive)

----------
Tested on: SF-268 CNS
Assay Text: NCI-60 one-dose screen, 48 h (100 = growth as untreated, 0 = no growth, -100 = all killed)
Experimental Conditions: 10 µM unless noted
The panel holds about 83,000 compounds, 20% with a hit somewhere; the sample as a whole holds those more often.
Below, each entry is listed alongside its reported growth.
Hi! Could you send only the number? It should be in %, unit omitted.

| Compound | growth (%) |
| --- | --- |
| CCOC(=O)/C(C#N)=C\c1c[nH]c2ccccc12 | 101 |
| CC(=O)C[n+]1ccc(C)cc1Sc1ccccc1C | 93 |
| Cc1nc(O)cc(=O)[nH]1 | 105 |
| CCOC(=O)CO | 115 |

Ask: Request: growth, test system SF-268 CNS, entry COC(=O)C1=C(C)C(=O)CC1
Reply: 111

Ask: Enter reported growth observed with SF-268 CNS for CNc1ccccc1C(=O)N/N=C/C=C/c1ccccc1
Reply: 34.9

Ask: Request - read-out growth | tested on SF-268 CNS | compound COC(CCCl)c1ccc(Cl)cc1 (stereo not drawn)
Reply: 110

Ask: Request - read-out growth | tested on SF-268 CNS | compound COc1ccc(C2CCCCC2=O)cc1 (stereo not drawn)
Reply: 116

Ask: Lab request: please report growth under test system SF-268 CNS for Cc1ccc(S(N)(=O)=O)cc1Cl
Reply: 108

Ask: GET /values?readout=growth&system=SF-268 CNS&item= CCC(=O)Oc1c(C)cc(O)c2ccccc12
Reply: 90.9

Ask: Please state recorded growth (tested on SF-268 CNS) of CCN(C(=O)Nc1ccccc1Cl)c1ccccc1
Reply: 109

Ask: Give recorded growth with SF-268 CNS for the following compound: Nc1ccc2ccccc2c1-c1c(N)ccc2ccccc12
Reply: 54.1

Ask: Given the entry CC(=O)c1cccc(N(C)S(=O)(=O)c2ccc(C)cc2)c1 , what growth was observed with SF-268 CNS?
Reply: 93

Ask: Hi! What's the reported growth for O=Cc1ccc(O)c(O)c1 on SF-268 CNS?
Reply: 74.1

----------
Tested on: COLO 205 colon
Assay Text: NCI-60 one-dose screen, 48 h
Experimental Conditions: 10 µM unless noted
This is part of a sample that, as a whole, favours compounds with a hit. Of some 83,000 tested, about 20% had one in any assay. Activity calls are given as the source filed them. How the source made its calls: active means growth percent below 10; inactive means the rest.
Write down one outcome, taken from Y for active, N for inactive

| Compound | Target | Class Name |
| --- | --- | --- |
| O=C(O)Cc1ccc(Cl)cc1 | COLO 205 colon | N |

Ask: Recorded test outcome, item Clc1ccc(-c2noc(/C=C\c3ccccc3)n2)cc1
Reply: N

Ask: Any idea what this test logged for CC(=O)C[n+]1ccc(C)cc1Sc1ccccc1C ?
Reply: N

----------
Tested on: SF-539 CNS
Assay Text: NCI-60 one-dose screen, 48 h (100 = growth as untreated, 0 = no growth, -100 = all killed)
Experimental Conditions: 10 µM unless noted
The panel holds about 83,000 compounds, 20% with a hit somewhere; the sample as a whole holds those more often.
Listing of entries alongside the reported growth.
Please reply with the bare figure in % and do not write the unit itself.

// solved cases for growth follow
| Molecule | Unit Symbol | growth |
| --- | --- | --- |
| O=C(c1ccccc1)c1ccc(-c2ccc(O)cc2)cc1 | % | 79.5 |
| OCCNc1ccccc1 | % | 95.9 |
| CCOC(=O)c1cc(Cl)c(O)c(Cl)c1 | % | 106 |

Okay, next one:
Ask: Form field: reported growth of CC(=O)OCC1OC(n2cnc3c(=S)nc(N)[nH]c32)C(OC(C)=O)C1OC(C)=O (centres undefined)
Reply: 85.7

// data source = PubChem BioAssay (NCI)
